- measured-on: T1, HaloTag-ATRX ADD domain (163-292)
- T1 chain: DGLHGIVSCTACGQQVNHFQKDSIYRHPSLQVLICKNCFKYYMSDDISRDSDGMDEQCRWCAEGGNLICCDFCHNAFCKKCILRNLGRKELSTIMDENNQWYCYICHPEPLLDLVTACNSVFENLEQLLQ
- assay-procedure: peptide microarray binding signal (635 nm), min-max normalized on array (fraction of array maximum); higher = stronger binding
- assay-conditions: peptide region: Unmod H2B variant; binder concentration: 50 nM
Lab note: anything with peptide microarray binding signal at or over 0.006 counts as fulfilled; the rest go in not fulfilled.

Please indicate if the recorded peptide microarray binding signal for PEVSSKGATISKK [Unmod H2B variant P E V S S K G A T I S K K] meets or exceeds 0.006.
not fulfilled

Tell me whether peptide microarray binding signal is at least 0.006 here: EGTKAVTKYTSSK [Unmod H2B variant E G T K A V T K Y T S S K]
not fulfilled

Is it the case that KRTRKESYSIYIY [Unmod H2B variant K R T R K E S Y S I Y I Y] has peptide microarray binding signal reaching or exceeding 0.006?
fulfilled

Please check the record PKKGSKKAVTKAQ [Unmod H2B variant P K K G S K K A V T K A Q] and state if its peptide microarray binding signal is at or above 0.006.
not fulfilled

Decide: is the reported value of peptide microarray binding signal for DGKKRKRSRKESY [Unmod H2B variant D G K K R K R S R K E S Y] equal to or greater than 0.006?
fulfilled

API: above_or_equal(metric=peptide microarray binding signal, cutoff=0.006) for item DIFERIASEASRL [Unmod H2B variant D I F E R I A S E A S R L]
fulfilled

Please indicate if the recorded peptide microarray binding signal for KRSRKESYSIYVY [Unmod H2B variant K R S R K E S Y S I Y V Y] meets or exceeds 0.006.
not fulfilled

peptide microarray binding signal >= 0.006 for EIQTAVRLLLPGE [Unmod H2B variant E I Q T A V R L L L P G E] ?
fulfilled
